Tested on: HT-29 (human colon adenocarcinoma)
Assay: Inhibition of cell proliferation (MTT), HT-29
Assay type: cell-based
Settings: Homo sapiens, HT-29, 48 h, Table 1; 48 h of treatment (footnote); average ±SD of three experiments
// NB: equality with 30 µM counts as Criterion not met; only IC50 strictly below is Criterion met

COC(=O)[C@@H](NC(=O)COc1cc(/C=C\c2cc(OC)c(OC)c(OC)c2)ccc1OC)C(C)O (stereo partly drawn) [Compound 3.7] ... Criterion met
COc1ccc(/C=C\c2cc(OC)c(OC)c(OC)c2)cc1OCC(=O)NCC(=O)O [Compound 4.1] ... Criterion met
COc1ccc(/C=C\c2cc(OC)c(OC)c(OC)c2)cc1OCC(=O)N[C@@H](CCSC)C(=O)O [Compound 4.9] ... Criterion not met
COc1ccc(/C=C\c2cc(OC)c(OC)c(OC)c2)cc1OCC(=O)N[C@H](C(=O)O)C(C)O (stereo partly drawn) [Compound 4.7] ... Criterion not met
COC(=O)[C@@H](NC(=O)COc1cc(/C=C\c2cc(OC)c(OC)c(OC)c2)ccc1OC)C(C)C [Compound 3.2] ... Criterion met

Now, please, on to the next compound.
# input In the record for COC(=O)[C@@H](CC(C)C)NC(=O)COc1cc(/C=C\c2cc(OC)c(OC)c(OC)c2)ccc1OC [Compound 5.2] , is IC50 less than 30 µM?
# output Criterion met

* * *

Test system: HT-29 (human colon adenocarcinoma)
Experiment: Inhibition of cell proliferation (MTT), HT-29
Format: cell-based
Conditions: Homo sapiens, HT-29, 48 h, Table 1; 48 h of treatment (footnote); average ±SD of three experiments
Lab note: compare IC50 with 20 µM, writing met if less and not met if equal or more.

For orientation, consider the following solved cases.
COc1ccc(/C=C\c2cc(OC)c(OC)c(OC)c2)cc1OCC(=O)N[C@@H](CC(C)C)C(=O)O ... met
COC(=O)[C@H](Cc1ccc(O)cc1)NC(=O)COc1cc(/C=C\c2cc(OC)c(OC)c(OC)c2)ccc1OC ... met
COC(=O)[C@@H](Cc1ccccc1)NC(=O)COc1cc(/C=C\c2cc(OC)c(OC)c(OC)c2)ccc1OC ... met

# input Please determine if `CCOC(=O)COc1cc(/C=C\c2cc(OC)c(OC)c(OC)c2)ccc1OC` is below 20 µM in terms of IC50.
# output met

# input API: query returns whether the molecule falls strictly under 20 µM in IC50. Query: `COC(=O)[C@H](Cc1ccccc1)NC(=O)COc1cc(/C=C\c2cc(OC)c(OC)c(OC)c2)ccc1OC`
# output not met

# input Lab note: IC50 threshold 20 µM. Does this molecule come in strictly under it? `COc1ccc(/C=C\c2cc(OC)c(OC)c(OC)c2)cc1OCC(=O)N1CCC[C@H]1C(=O)O`
# output not met

# input Does this molecule meet the criterion IC50 < 20 µM? `COc1ccc(/C=C\c2cc(OC)c(OC)c(OC)c2)cc1OCC(=O)N[C@H](CC(C)C)C(=O)O`
# output not met

# input Strictly below 20 µM: is that where IC50 of `COC(=O)[C@@H](CO)NC(=O)COc1cc(/C=C\c2cc(OC)c(OC)c(OC)c2)ccc1OC` sits?
# output met

# input Please let me know if `COC(=O)CNC(=O)COc1cc(/C=C\c2cc(OC)c(OC)c(OC)c2)ccc1OC` shows IC50 below 20 µM.
# output met

# input Field: below-cutoff. Rule: recorded IC50 strictly less than 20 µM. Subject: `COC(=O)[C@H](CC(C)C)NC(=O)COc1cc(/C=C\c2cc(OC)c(OC)c(OC)c2)ccc1OC`
# output not met

# input A record lists `COc1ccc(/C=C\c2cc(OC)c(OC)c(OC)c2)cc1OCC(=O)N[C@H](CO)C(=O)O` . Is its IC50 below 20 µM?
# output met

# input Lab log: compare recorded IC50 with 20 µM; is it strictly lower for `COC(=O)[C@H](NC(=O)COc1cc(/C=C\c2cc(OC)c(OC)c(OC)c2)ccc1OC)C(C)C` ?
# output not met

# input Strictly below 20 µM in IC50? `COc1ccc(/C=C\c2cc(OC)c(OC)c(OC)c2)cc1OCC(=O)N[C@@H](CO)C(=O)O`
# output not met

# input Hello, is IC50 of the following molecule strictly smaller than 20 µM? `COc1ccc(/C=C\c2cc(OC)c(OC)c(OC)c2)cc1OCC(=O)N1CCC[C@@H]1C(=O)O`
# output not met

# input Here's an entry: `COC(=O)[C@H](CO)NC(=O)COc1cc(/C=C\c2cc(OC)c(OC)c(OC)c2)ccc1OC` . Is its IC50 below 20 µM?
# output met

* * *

Could you please report measured G0/G1 for the items listed next?
System: A-549 cells
Test: Cell cycle distribution by flow cytometry
Format: cell-based, human
Details: A-549, 24 h, 75 μM
Protocol: The effects of some CA-4 derivatives on the cell cycle were evaluated in A-549 cells. The effects of some AmCA-4 derivatives on the cell cycle were also evaluated in A-549 cells. The supernatant and trypsinated cells were harvested and then centrifuged (1200 rpm, 5 min, 4 °C). […] Samples were analyzed on a Becton Dickinson FACScan flow cytometer using the CellQuest software, which was also used to determine the percentage of cells in the G2/M phases of the cell cycle. […]

Recorded G0/G1, per entry:
COc1ccc(/C=C\c2cc(OC)c(OC)c(OC)c2)cc1OCC(=O)N[C@@H](CCSC)C(=O)O ... 76%
COc1ccc(/C=C\c2cc(OC)c(OC)c(OC)c2)cc1OCC(=O)N[C@H](CO)C(=O)O ... 64%
COC(=O)[C@H](CCSC)NC(=O)COc1cc(/C=C\c2cc(OC)c(OC)c(OC)c2)ccc1OC ... 47 ± 4%

Lab note: next compound to report on.
# input Fill blank: measured G0/G1 of the compound `COC(=O)[C@H](CO)NC(=O)COc1cc(/C=C\c2cc(OC)c(OC)c(OC)c2)ccc1OC` is ____.
# output 30 ± 9%

* * *

System: c-Myc gene
Assay: c-Myc gene expression by RT-qPCR in HT-29 cells
Assay type: cell-based, human
Conditions: Homo sapiens, HT-29, 48 h, 7 nM, control 100
Record form. Attribute: mrna remaining at 0.007 µM. Fill in for each entry.
One number for each entry, in %.

COc1ccc(/C=C\c2cc(OC)c(OC)c(OC)c2)cc1NC(=O)[C@@H](N)C(C)O (stereo partly shown) [Compound 8.7] ... 37

Please state mrna remaining at 0.007 µM for every compound in the list that follows.
1. COc1ccc(/C=C\c2cc(OC)c(OC)c(OC)c2)cc1NC(=O)[C@@H](NC(=O)OCC1c2ccccc2-c2ccccc21)C(C)O (stereo partly shown) [Compound 7.7]
2. COc1ccc(/C=C\c2cc(OC)c(OC)c(OC)c2)cc1NC(=O)CN [Compound 8.1]
3. COc1ccc(/C=C\c2cc(OC)c(OC)c(OC)c2)cc1NC(=O)CNC(=O)OCC1c2ccccc2-c2ccccc21 [Compound 7.1]

# output
56
54
58

* * *

System: A-549 cells
Assay: Cell cycle distribution by flow cytometry
Type: cell-based, human
Conditions: A-549, 24 h, 75 μM
For each record, check the reported G0/G1: if it is below 70% write Condition met, else write Condition not met.

Worked set:
COC(=O)[C@@H](NC(=O)COc1cc(/C=C\c2cc(OC)c(OC)c(OC)c2)ccc1OC)C(C)O (some centres unmarked) [Compound 3.7] ... Condition met
COc1ccc(/C=C\c2cc(OC)c(OC)c(OC)c2)cc1OCC(=O)N[C@H](Cc1ccccc1)C(=O)O [Compound 6.3] ... Condition not met
COC(=O)[C@H]1CCCN1C(=O)COc1cc(/C=C\c2cc(OC)c(OC)c(OC)c2)ccc1OC [Compound 5.4] ... Condition met
COC(=O)[C@H](CC(C)C)NC(=O)COc1cc(/C=C\c2cc(OC)c(OC)c(OC)c2)ccc1OC [Compound 3.3] ... Condition met
COC(=O)[C@@H](NC(=O)COc1cc(/C=C\c2cc(OC)c(OC)c(OC)c2)ccc1OC)C(C)C [Compound 3.2] ... Condition met
COC(=O)[C@H](Cc1ccc(O)cc1)NC(=O)COc1cc(/C=C\c2cc(OC)c(OC)c(OC)c2)ccc1OC [Compound 3.8] ... Condition met

# input Does COc1ccc(/C=C\c2cc(OC)c(OC)c(OC)c2)cc1OCC(=O)N[C@H](CC(C)C)C(=O)O [Compound 6.2] have G0/G1 strictly under 70%?
# output Condition not met

# input Is the reported G0/G1 for COc1ccc(/C=C\c2cc(OC)c(OC)c(OC)c2)cc1OCC(=O)N[C@@H](CC(C)C)C(=O)O [Compound 4.3] strictly below 70%?
# output Condition met

* * *

Tested on: A-549 cells
Assay: Cell cycle distribution by flow cytometry
Assay type: cell-based, human
Conditions: A-549, 24 h, 75 μM
Assignment: determine reported S for the given molecules.
One number for each entry, in %.

Examples with their reported S follow.
COc1ccc(/C=C\c2cc(OC)c(OC)c(OC)c2)cc1OCC(=O)NCC(=O)O ... 12
COC(=O)[C@H](CCSC)NC(=O)COc1cc(/C=C\c2cc(OC)c(OC)c(OC)c2)ccc1OC ... 17
COc1ccc(/C=C\c2cc(OC)c(OC)c(OC)c2)cc1OCC(=O)N[C@H](CC(C)C)C(=O)O ... 3
COC(=O)[C@H](CC(C)C)NC(=O)COc1cc(/C=C\c2cc(OC)c(OC)c(OC)c2)ccc1OC ... 19
COc1ccc(/C=C\c2cc(OC)c(OC)c(OC)c2)cc1OCC(=O)N[C@@H](CC(C)C)C(=O)O ... 15

Provide each entry's S from the list below.
1. COc1ccc(/C=C\c2cc(OC)c(OC)c(OC)c2)cc1OCC(=O)N[C@H](CO)C(=O)O
2. COc1ccc(/C=C\c2cc(OC)c(OC)c(OC)c2)cc1OCC(=O)N[C@H](Cc1ccccc1)C(=O)O

# output
[18, 11]
